# Procedure Text: reversal of MRP1-mediated doxorubicin resistance, pilot screen, H69AR cells, doxorubicin co-treatment (AID 601)
# Recorded Conditions: H69AR cells + 2 uM doxorubicin, CellTiter-Glo, 72 h; at 10 µM; hits give high values
Answer each item with its documented differential viability (reversal).
Numbers only, in %.

# Compound, Result Units, differential viability (reversal)
measured = [
    ("O=S(=O)(Nc1ccccn1)c1ccc(Oc2ccccc2)cc1", "%", 10.5),
    ("CSc1ccccc1NC(=O)c1c(Br)cnn1C", "%", 6.58),
    ("CC1CN(c2nc(-c3ccccc3)nc3ccccc23)CC(C)O1 (stereo unspecified)", "%", 4.54),
    ("CCOC(=O)c1cc2c(=O)n3cccc(C)c3nc2n(Cc2ccco2)c1=NC(=O)c1cccnc1", "%", 8.21),
    ("O=C(CCCCC(=O)NCc1cccs1)NCc1cccs1", "%", 0.77),
    ("COc1cccc(/C=N/n2c(C)nc3ccccc32)c1OC", "%", 3.66),
    ("O=C(COC(=O)c1ccc(Br)o1)Nc1ccc(S(=O)(=O)N2CCCC2)cc1", "%", 13.3),
    ("Cc1sc2c(c1C)CN(C1CC(C)(C)NC(C)(C)C1)CN2C(=O)c1ccco1", "%", 0.235),
    ("CCOC(=O)c1cc(CC)sc1NC(=O)CCC(=O)O", "%", 2.2),
    ("O=C1CC(N2CCOCC2)C(=O)N1c1ccc2c(c1)OCO2 (stereo unspecified)", "%", -4.17),
]

Here is another compound to look at.
Exam item: // query differential viability (reversal) value for entry `Cc1ccc(-n2ncc3c(=O)n(CC(=O)NC4CCCCC4)cnc32)cc1C`
Marked response: 1.56

* * *

For each record, write down the corresponding viability.
# Procedure Text: growth inhibitors of H69AR lung tumor, primary screen, human, duplicate replicates (AID 580);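 note: 100% = mean luminescence of untreated wells and 0% = no signal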
# Recorded Conditions: H69AR lung tumor cells viability, ATP luminescence, 72 h; at 10 µM; hits give low values
Answers are plain numbers, in %.

# Compound, Test Readout, Result Number
rows = [
    ("CN(C1CCS(=O)(=O)C1)S(=O)(=O)c1cccc2nsnc12 (stereo unspecified)", "viability", 107),
    ("O=S1(=O)CC(N2CCOCC2)c2ccccc21 (stereo unspecified)", "viability", 103),
    ("Cc1ccc(S(=O)(=O)N2CCCC2C(=O)n2nc(C)cc2C)cc1 (stereo unspecified)", "viability", 83.5),
    ("Cc1cc(C)n(S(=O)(=O)Cc2ccccc2)n1", "viability", 92.2),
]

Report viability for every entry below.
1. CC(C)(C)OC(=O)N1CCC(C(=O)N2CCCCCC2)CC1
2. Cc1csc2nc(CNC(=O)c3ccco3)cn12

Marked response:
[107, 112]

* * *

Please respond with reported growth inhibition for every item in the list.
# Procedure Text: OD615 S. cerevisiae growth inhibition, permissive medium, pilot counter-assay, permissive growth control for S. cerevisiae lifespan shortening project (AID 705)
# Recorded Conditions: OD615, 24 h, at 10 µM, hits give high values
Numbers only, in %.

Here's what some known entries look like.
# Molecule, Result Units, growth inhibition
data = [
    ("O=C(CSc1nc(-c2ccco2)cc(C(F)(F)F)n1)Nc1ccc(C(=O)N2CCCCC2)cc1", "%", 0.645),
    ("CCOc1ccc(C2CC(c3ccc(OC)c(OC)c3)n3nc(N)nc3N2)cc1 (configuration not stated)", "%", 2.68),
]

List the reported growth inhibition of each molecule below.
1. CCOCCCNC(=O)Cn1cc2c(n1)CCCC2
2. O/N=C(/Cc1ccccn1)c1ccccc1
3. Cc1csc2nc(CNC(=O)C3CC=CCC3C(=O)O)cn12 (configuration not stated)
4. O=C1CC(c2ccco2)CC(O)=C1C=NCC1CCNCC1 (configuration not stated)
5. COc1cc(S(=O)(=O)N2CCCCCC2)c(OC)cc1Br
6. CCCCn1c(C(C)NC(=O)CCC)nc2ccccc21 (configuration not stated)
7. O=C(CCCOc1ccccc1)N1CCCc2ccccc21

Marked response:
1. 3.43
2. -1.64
3. -3.37
4. -17.1
5. 0.23
6. -1.25
7. -0.835

Take each entry in turn and give its growth inhibition.
1. COc1cccc(OCCOc2cccc(/C=N/n3cnnc3)c2)c1
2. Cn1c(SCC(=O)Nc2cccc(F)c2)nnc1-c1cccnc1
3. O=C(CSc1nnnn1-c1cccc2c1CCCC2)N1CCOCC1

Marked response:
6.03
-4.63
-3.82

Hey, just so you know, these numbers are from PubChem BioAssay.
